- ASSAY_INFO: Inhibition of C3b activation relative to compstatin
Positions of bridges follow the written chain, without caps; N, C: chain ends. Residues, ends and D or L forms follow the SMILES beside them.
Each item that follows carries a reported logIC50.

{"columns": ["COMPOUND", "REPORTED_METRIC", "OBSERVED_RESULT"],
 "data": [
  ["CC(C)[C@@H]1NC(=O)[C@H](C(C)C)NC(=O)[C@@H](N)CSSC[C@@H](C(=O)O)NC(=O)[C@H](C)NC(=O)[C@H](Cc2cnc[nH]2)NC(=O)[C@H](Cc2cnc[nH]2)NC(=O)CNC(=O)[C@H](Cc2c[nH]c3ccccc23)NC(=O)[C@H](CC(=O)O)NC(=O)[C@H](CCC(N)=O)NC1=O (H-CVVQDWGHHAC-OH; disulfide 1-11)", "logIC50", -0.767],
  ["CC(=O)N[C@@H](CCCNC(=N)N)C(=O)N[C@H]1CSSC[C@@H](C(=O)N[C@H](C(N)=O)[C@@H](C)O)NC(=O)[C@H](CCCNC(=N)N)NC(=O)[C@H](Cc2cnc[nH]2)NC(=O)[C@H](Cc2cnc[nH]2)NC(=O)CNC(=O)[C@H](Cc2c[nH]c3ccccc23)NC(=O)[C@H](CC(=O)O)NC(=O)[C@H](CCC(N)=O)NC(=O)[C@H](C(C)C)NC(=O)[C@H](C(C)C)NC1=O (Ac-RCVVQDWGHHRCT-NH2; disulfide 2-12)", "logIC50", 0.176]
]}

As a next step, examine the compound that follows.
query: Look up logIC50 for this compound: CC(C)[C@@H]1NC(=O)[C@H](C(C)C)NC(=O)[C@@H](N)CSSC[C@@H](C(=O)O)NC(=O)[C@H](CCCNC(=N)N)NC(=O)[C@H](C)NC(=O)[C@H](Cc2cnc[nH]2)NC(=O)CNC(=O)[C@H](Cc2c[nH]c3ccccc23)NC(=O)[C@H](CC(=O)O)NC(=O)[C@H](CCC(N)=O)NC1=O (H-CVVQDWGHARC-OH; disulfide 1-11)
result: -0.79

###

- ASSAY_INFO: Inhibition of C3b activation relative to compstatin
REPORTED_METRIC: logIC50
# answer = number (no unit)

{"columns": ["ITEM_SMILES", "logIC50"],
 "data": [
  ["CC[C@H](C)[C@H](N)C(=O)N[C@H]1CSSC[C@@H](C(=O)N[C@H](C(N)=O)[C@@H](C)O)NC(=O)[C@H](CCCNC(=N)N)NC(=O)[C@H](Cc2cnc[nH]2)NC(=O)[C@H](Cc2cnc[nH]2)NC(=O)CNC(=O)[C@H](Cc2c[nH]c3ccccc23)NC(=O)[C@H](CC(=O)O)NC(=O)[C@H](CCC(N)=O)NC(=O)[C@H](C(C)C)NC(=O)[C@H](C(C)C)NC1=O", 0]
]}

Query molecule follows.
query: Which logIC50 value belongs to "CC[C@H](C)[C@H](NC(C)=O)C(=O)N[C@H]1CSSC[C@@H](C(=O)N[C@H](C(=O)O)[C@@H](C)O)NC(=O)[C@H](CCCNC(=N)N)NC(=O)[C@H](Cc2cnc[nH]2)NC(=O)[C@H](C)NC(=O)CNC(=O)[C@H](Cc2c[nH]c3ccccc23)NC(=O)[C@H](CC(=O)O)NC(=O)[C@H](CCC(N)=O)NC(=O)[C@H](Cc2cccc3ccccc23)NC(=O)[C@H](C(C)C)NC1=O" ?
result: 1.47
